- measured target: EZH2 (Homo sapiens)
- Sequence (Q15910 whole entry): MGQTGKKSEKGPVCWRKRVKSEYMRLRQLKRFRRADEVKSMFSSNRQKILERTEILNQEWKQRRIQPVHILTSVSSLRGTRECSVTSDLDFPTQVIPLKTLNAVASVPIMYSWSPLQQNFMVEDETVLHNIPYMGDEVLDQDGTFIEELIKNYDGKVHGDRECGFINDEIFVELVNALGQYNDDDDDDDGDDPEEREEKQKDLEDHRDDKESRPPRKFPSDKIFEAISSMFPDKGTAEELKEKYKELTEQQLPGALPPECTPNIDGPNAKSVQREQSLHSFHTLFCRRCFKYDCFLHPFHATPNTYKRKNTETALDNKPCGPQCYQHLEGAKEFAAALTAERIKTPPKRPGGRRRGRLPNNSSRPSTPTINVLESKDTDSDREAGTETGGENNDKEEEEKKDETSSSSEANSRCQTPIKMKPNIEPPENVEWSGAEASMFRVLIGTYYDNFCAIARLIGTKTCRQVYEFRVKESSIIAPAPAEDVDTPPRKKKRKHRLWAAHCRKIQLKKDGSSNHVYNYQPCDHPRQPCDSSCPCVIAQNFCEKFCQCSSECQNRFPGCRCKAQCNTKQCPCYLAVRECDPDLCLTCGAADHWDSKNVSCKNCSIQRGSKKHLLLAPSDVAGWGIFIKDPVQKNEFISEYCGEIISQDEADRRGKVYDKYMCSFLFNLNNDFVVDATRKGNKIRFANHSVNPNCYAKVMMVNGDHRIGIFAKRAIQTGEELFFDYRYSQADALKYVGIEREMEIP
- Sequence (O75530 whole entry partner): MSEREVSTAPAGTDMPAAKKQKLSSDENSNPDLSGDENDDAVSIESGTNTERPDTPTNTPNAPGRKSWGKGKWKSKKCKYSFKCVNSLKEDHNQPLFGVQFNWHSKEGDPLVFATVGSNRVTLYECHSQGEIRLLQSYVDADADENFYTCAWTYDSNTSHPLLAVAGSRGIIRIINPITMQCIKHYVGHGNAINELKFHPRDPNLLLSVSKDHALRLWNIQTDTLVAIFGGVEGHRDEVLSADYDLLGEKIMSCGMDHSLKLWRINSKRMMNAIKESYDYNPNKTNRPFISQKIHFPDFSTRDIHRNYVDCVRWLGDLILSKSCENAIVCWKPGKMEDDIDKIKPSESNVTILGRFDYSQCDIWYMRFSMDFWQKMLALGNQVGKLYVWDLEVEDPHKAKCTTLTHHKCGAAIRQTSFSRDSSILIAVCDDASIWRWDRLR
- Sequence (Q15022 whole entry partner): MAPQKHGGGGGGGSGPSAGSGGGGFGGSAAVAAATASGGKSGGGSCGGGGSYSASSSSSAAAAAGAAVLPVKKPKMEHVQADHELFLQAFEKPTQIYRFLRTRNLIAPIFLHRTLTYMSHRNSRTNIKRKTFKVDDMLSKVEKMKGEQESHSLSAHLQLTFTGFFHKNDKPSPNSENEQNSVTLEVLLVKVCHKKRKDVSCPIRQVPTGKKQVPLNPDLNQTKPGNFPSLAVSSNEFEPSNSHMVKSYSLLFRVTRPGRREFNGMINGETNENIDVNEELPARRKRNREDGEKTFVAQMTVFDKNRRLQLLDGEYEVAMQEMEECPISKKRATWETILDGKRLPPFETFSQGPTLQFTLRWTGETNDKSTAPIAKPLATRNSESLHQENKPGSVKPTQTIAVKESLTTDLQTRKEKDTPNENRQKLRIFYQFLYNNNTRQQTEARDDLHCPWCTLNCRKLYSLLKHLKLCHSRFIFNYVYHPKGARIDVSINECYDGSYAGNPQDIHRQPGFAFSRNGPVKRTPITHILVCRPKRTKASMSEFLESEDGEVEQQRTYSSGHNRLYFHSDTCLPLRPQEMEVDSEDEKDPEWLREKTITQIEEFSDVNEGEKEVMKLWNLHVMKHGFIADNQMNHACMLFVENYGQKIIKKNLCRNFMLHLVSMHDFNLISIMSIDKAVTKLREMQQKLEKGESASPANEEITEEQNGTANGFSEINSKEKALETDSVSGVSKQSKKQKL
- assay details: EZH2 assay: rPRC2 with biotinylated oligonucleosome substrates and 3H SAM, FlashPlate scintillation counting, IC50
- Assay type: biochemical
- assay context: rPRC2, biotinylated oligonucleosome substrates, 3H SAM; read-out: EZH2 IC50
pIC50: −log10 of the molar value.
endpoint label: pIC50

Please review the entries below; each comes with its answer.
Request: State the measured pIC50 (EZH2 (Homo sapiens)) of Cc1cccc(Oc2ccc(C(=O)NC3CC(C)(C)NC(C)(C)C3)cc2Cl)c1-c1ccncc1 [Compound I-383]
Result: 4.10 to 4.70

Request: Please look at CN(C(=O)c1ccc(Oc2ccccc2C#N)c(Cl)c1)C1CC(C)(C)NC(C)(C)C1 [Compound I-344] and tell me its recorded pIC50 on EZH2 (Homo sapiens).
Result: 4.70 to 5.30

Request: Specify pIC50 for CCC(C)c1ccccc1Oc1ccc(C(=O)NC2CC(C)(C)NC(C)(C)C2)cc1 (stereo not shown) [Compound I-170] , system EZH2 (Homo sapiens).
Result: 4.70 to 5.30

Request: Specify the recorded pIC50 for Cc1cnccc1-c1cccc(Oc2ccc(C(=O)NC3CC(C)(C)NC(C)(C)C3)cc2Cl)c1C#N [Compound I-572] , system: EZH2 (Homo sapiens).
Result: > 5.30

Request: Find the measured pIC50 of C#Cc1cccc(OCc2ccc(C(=O)NC3CC(C)(C)NC(C)(C)C3)cc2)c1 [Compound I-184] with EZH2 (Homo sapiens) as test system.
Result: > 5.30

Continuing:
Request: With EZH2 (Homo sapiens) as the test system, provide measured pIC50 for this compound: C#Cc1ccccc1Oc1ccc(C(=O)NC2CC(C)(C)NC(C)(C)C2)cc1 [Compound I-224]
Result: 4.70 to 5.30

Request: Report pIC50 from EZH2 (Homo sapiens) testing of CC1(C)CC(NC(=O)c2ccc(Oc3ccccc3-c3ccncc3)c(Cl)c2)CC(C)(C)N1 [Compound I-226]
Result: > 5.30

Request: State pIC50 on EZH2 (Homo sapiens). Entry: CC1(C)CC(NC(=O)Nc2ccc(C(C)(C)C)cc2Br)CC(C)(C)N1 [Compound I-143]
Result: < 4.10

Request: Output reported pIC50 of the compound CC1(C)CC(NC(=O)c2ccc(OC3CCNCC3)c(Cl)c2)CC(C)(C)N1 [Compound I-382] on EZH2 (Homo sapiens).
Result: < 4.10

Request: Report measured pIC50 on EZH2 (Homo sapiens); entry: CCOC(=O)N1CCC(NC(=O)c2ccc(Oc3ccccc3C#N)c(Cl)c2)CC1 [Compound I-281]
Result: < 4.10

Request: Quote pIC50 with test system EZH2 (Homo sapiens) for CC1(C)CC(NC(=O)c2ccc(COc3cccnc3Cl)cc2)CC(C)(C)N1 [Compound I-77]
Result: < 4.10

Request: Find pIC50 for CC1(C)CC(NC(=O)c2ccc(Oc3ccccc3C(=O)Nc3ccccc3)c(Cl)c2)CC(C)(C)N1 [Compound I-272] on EZH2 (Homo sapiens) and write it down.
Result: 4.10 to 4.70

Request: Supply pIC50 measured with EZH2 (Homo sapiens) for CC1(C)CC(NC(=O)c2ccc(Oc3cccc4cnccc34)c(Cl)c2)CC(C)(C)N1 [Compound I-324] .
Result: > 5.30

Request: Enter pIC50 (test system EZH2 (Homo sapiens)) for N#Cc1c(Br)cccc1Oc1ccc(C(=O)NC2CCNCC2)cc1Cl [Compound I-407]
Result: < 4.10

Request: Enter pIC50 (test system EZH2 (Homo sapiens)) for CC1(C)CC(NC(=O)c2ccc(Oc3cccc(-c4cncs4)c3C#N)c(Cl)c2)CC(C)(C)N1 [Compound I-371]
Result: > 5.30

Request: GET pIC50 | system: EZH2 (Homo sapiens) | item: CC1(C)CC(NC(=O)c2ccc(Oc3ccncc3)cc2)CC(C)(C)N1 [Compound I-319]
Result: < 4.10

The measurements presented in this section are drawn from patent US20130310379A1.
